assay: soluble on expression in E. coli; label from the status in PepcDB or PDB records
resultType: soluble on expression in E. coli

>>> datavalue("MSLNPPYTIVFALYPGVTQLDFTGPLEFLSKLPHARCVLASSRGEDIRADGGIVFADIARLGAIERCDLLLVPGGLGTIEAMEDAELLAQLRRLAASADYVSSVCTGSLLLGAAGLLKGRRAACHWAWLDSLAAFGAQPCPDRVVVDGKLISGGGVTAGIDMALTLMAEIAGPQFAQTAQLTLEYAEGHHHHHH")
"not soluble"
>>> datavalue("MSLSSAYQLVIFDWEGTIADTLGVILHTVATEAKMLGFGDIDPYQARKYVDLGLVQAVKKTLPNLTAGQQEDLLQAVQSAMISRPTEVRLIPGVLEFIQQLHQAKVDLAIATNKGHNSLIRALQATELDQLFKVTRSAGQVPAKPCPQMLEEIMEEFGRDPSSTLMIGDSTTDMEMAKRINVNAIGMDFYHQQEDALKAAGALAVFDDYKLLSAYLMLPEAEGHHHHHH")
"soluble"
>>> datavalue("MTSDATHEEAVSLLQELGLKEYEAKCFVGLSRMSSGTAKGLSEVTDVPRTRVYDAVRILEAKGLVEVQHSSPQQFRAVPLSEATETLRDQYEERIERLQSALREMGRIEADNDEAELQEVWSLSGSDAIENRAAAISADATDEVVLVIGSEAVLTEPLIKQLNSLNPNADLIVGTGSASIRDRVEQEIPRATAFLSELDWLHSEMIPEEDAAVGRLLLVDRSTMLVSSINPQTGDEQAIFATGLRNGLIVIARRLLSQGVVEMTPLEQD")
"not soluble"
>>> datavalue("MGSDKIHHHHHHMTQALTKQVIFDEFIDWLPENSEGRYELHDGVIVEMPKPSGKHSNVIGFLIEELFLSIIQIGKRGIWTIPRESIVKPNSKSGYEPDIIVLDQEALSNEPRWERESIIENPASVKLIVEVVSTAVASSRETRPTHCLTNWRDDYYKKRADYVRVASRREEMGIPEYWIVDYAGLGGRAFIGNPKQPTISVNYLIEGEYQVSQFRQGERIQSVTFPELDLTVDQIFQVG")
"not soluble"
>>> datavalue("MSYYHHHHHHLESTSLYKKAGLENLYFQGVRQYKIHTNLDGTDDKVWDVTNGKVRFYQPSNLGLQSTNNIWQSNGIGVMGTRSITQPQIEFKLETFGESLEENYQLMKDFVNDILSKKFVTLEYQTEIFQVYADLALADVTKTEGYGKNGTFSEKITFDIITKWYTYENLTFDKIQNGKVIAGMSKIYGGTAPGNYKYIKGTSYTYYGESDIDRLSRWDIKEEIFSFMGILYPKLPKTPAGVRFLDDIGNEYTAIVFKTEQVQDYILINTDVNDETYQGWKGTTALNLFPVMDFERYRTRIIEKGQMELINLSKAEFKIKRKADFV")
"soluble"
>>> datavalue("MGSDKIHHHHHHMQKLTRINDFNEVLNSRKSVKVFDENYKIPREEMDEIITKATKAPSSVNMQPWRIAVVQSDEMKEKVKESFGFNSRQLTTSSAMLIIFGDLQNYEKAEQIYGDAVEQQLMTEDIKAQLLDWILPYYKNLSREGMKDIVNIDSSLMAMQLMLTAKAHGYDTNPIGGFDKENIADIIGYDSDRYVPVLAIAIGKKAQDAHDSVRLPIDDVREFL")
"not soluble"
>>> datavalue("MTAQKMSAQEIIAFIGNAEKKTNVKVTFEGELATAVPSSVTKLGNVLFGDWKDIEPLLANLTENKDYVVEQDGRNSAVPLLDK")
"not soluble"
>>> datavalue("MCQATNGPSRVVTKKHRKFFERHLQLLPSSHQGHDVNRMAIIFYSISGLSIFDVNVSAKYGDHLGWMRKHYIKTVLDDTENTVISGFVGSLVMNIPHATTINLPNTLFALLSMIMLRDYEYFETILDKRSLARFVSKCQRPDRGSFVSCLDYKTNCGSSVDSDDLRFCYIAVAILYICGCRSKEDFDEYIDTEKLLGYIMSQQCYNGAFGAHNEPHSGYTSCALSTLALLSSLEKLSDKFKEDTITWLLHRQVSSHGCMKFESELNASYDQSDDGGFQGRENKFADTCYAFWCLNSLHLLTKDWKMLCQTELVTNYLLDRTQKTLTGGFSKNDEEDADLYHSCLGSAALALIEGKFNGELCIPQEIFNDFSKRCCF")
"soluble"
>>> datavalue("MPTDKEGDFIDPKEQEESLENIFSSLNDFQEKTDANAQKNEQKNEQEEEQRRLKEQQRLRKNQKNQEMLKGLQQNLNQFAQKLESVKNKTLDLQIPKQDGVDEKAYQEWYAQIYQILYKGWKGVFYHKASVSALIMIAKDGEFDYTILSYSDFKDYNKSVMTLLNDLKKVDFPPYPGGSMISIQVNFTTKEEQ")
"not soluble"
>>> datavalue("MGSDKIHHHHHHMGIVGLPNAGKSSFFNFLTDNSVPAESFPFCTIEPNVGILVVPDERIEILAKNEGSKKVVHPFVEVVDIAGLVKGASKGEGLGNQFLDHISKVDVIAHVVRLFEDGRVSHPYQNVDPKRDIEIVETELILKDLETVQKRLEKRMKVARTGDKEAKREVELLQNLREFLSQGKKASKFPRHDRFEEEVIESLFLLTDKPQILVFNVDELDEEKRKLIEEIVKEKDEEYIIINVKLEEELKFLPEEEAEVFRREYNLFGDKRKEFFEKVLKLLNLIRFLTATQNEARSWTIKKGSTAYEAAGLIHSDIQKGFIKVEVIPFERYVEFGSLKKAREAGAVETHGKDYIVREGDVIHFLFRA")
"not soluble"
>>> datavalue("MQSAELKQFVVDKIDDLKARDVVVIDVSNQSNITDYMVICSGTSKTHVKAIAENLVIEAKAAGIPPIGIEGRDSSEWVLVDMGNVILHVMQDQTRDFYQLEKLWSEKQA")
"soluble"
>>> datavalue("GPGSMSTFETVKEEKLEFEKNCDQHIYEKALLTFKGVDGMDVYNCSAPFKYEGRTHIFGRVEKRLEWANSYVRLFVETNKDEFTLVPGNMVWQLEDPFVSNIDNEMFLGGTHIRKTNNRVFTYYCDFFRGTAENLSYFTTGPDNMKDIRLVKLANNKIGVFSRPKTAAHAFIGFTVINNVMELTPTVIEEAPPLNVIHTGAWGGVNQAYLLSSDKLGCISHYSYIDKDEDGNEITVYTNYSFVLNPYLREVEDARIIGTKGCYPKCSPKVHKLLDCAFSSGIVMREDGRCDLYSGLGDAHEGRITIDYPFEGHGTLIDNLHF")
"soluble"

---

assay: soluble on expression in E. coli; label from the status in PepcDB or PDB records
resultType: soluble on expression in E. coli

>>> datavalue("MSTTANKERCLEMVAAWNRWDVSGVVAHWAPDVVHYDDEDKPVSAEEVVRRMNSAVEAFPDLRLDVRSIVGEGDRVMLRITCSATHQGVFMGIAPTGRKVRWTYLEELRFSEAGKVVEHWDVFNFSPLFRDLGVVPDGL")
"soluble"
>>> datavalue("MAPPNGTTNGETEVATQGSYTAVSTGRKTTMHRLIEEHGSVLMPGVQDALSAAVVEKTGFHAAFVSGYSVSAAMLGLPDFGLLTTTEVVEATRRITAAAPNLCVVVDGDTGGGGPLNVQRFIRELISAGAKGVFLEDQVWPKKCGHMRGKAVVPAEEHALKIAAAREAIGDSDFFLVARTDARAPHGLEEGIRRANLYKEAGADATFVEAPANVDELKEVSAKTKGLRIANMIEGGKTPLHTPEEFKEMGFHLIAHSLTAVYATARALVNIMKILKEKGTTRDDLDQMATFSEFNELISLESWYEMESKFKNFTPKAT")
"soluble"
>>> datavalue("GSHGLCKNLLQEYAQKMNYAIPLYQCQKVETLGRVTQFTCTVEIGGIKYTGAATRTKKDAEISAGRTALLAIQSDT")
"soluble"
>>> datavalue("MGSDKIHHHHHHMLQNPIHLRLERLESWQHVTFMACLCERMYPNYAMFCQQTGFGDGQIYRRILDLIWETLTVKDAKVNFDSQLEKFEEAIPSADDFDLYGVYPAIDACVALSELVHSRLSGETLEHAVEVSKTSITTVAMLEMTQAGREMSDEELKENPAVEQEWDIQWEIFRLLAECEERDIELIKGLRADLREAGESNIGIIFQQ")
"not soluble"
>>> datavalue("MSNWTTYPQKNLTQAEQLAQLIKEADALVVGIGAGMSAADGFTYIGSRFETAFPDFIAKYQFLDMLQASLFDFEDWQEYWAFQSRFVALNYLDQPVGQSYLDLKEILGTKDYHIITTNADNAFWVAGYDPHNIFHIQGEYGLWQCSQHCHQQTYKDDTVIRQMIAEQKNMKVPGQLIPHCPECEAPFEINKRNEEKGMVEDADFHAQKARYEAFLSEHKEGKVLYLEIGVGHTTPQFIKHPFWKRVSENPNALFVTLNHKHYRIPLSIRRQSLELTEHIAQLISATKTIYQKS")
"not soluble"
>>> datavalue("GELDPVVTWGTTPGQGIGIDDPIPEPEDLADDKVDTARRAQKHMRVEPGETMEGYDIDVAFLGSCTNARLPDLRRAARIVKGREVADDVRAFVVPGSQRVQRAAEEEGLKDIFEEAGFEWRNAGCSMCLGMNEDQLEGDEACASSSNRNFVGRQGSKDGRTVLMNPRMVAAAAITGEVSDVRDLKEVTLA")
"not soluble"
>>> datavalue("MGSDKIHHHHHHVKSELIWSKALETSRKAIDCAAVIPLETYKYKSIKKCFDFELRFLKRTFPKNLIDYGPKANPFIPWDRRLEVQAVNDNYTIILNKYPVQLGHLLLISNYWKPQNSWLSIDDFEAIAKVDNDTTGLWFFNSSKDAGASQPHRHFQLLRRDKYENICPRYEWFCSLLNNSEGFNSDIKQCISIKPRKSKLDIDAHDLFNSYKSMIIEMDLGNINNDDKPLKPYNLLITEKWISLIVRSKDRAHGFGINALGFAGYFLGTRRSDIDMLIKFGPESILKDVI")
"not soluble"

These measurements were taken from the DeepSol protein solubility set.
